- Tested on: HL-60(TB) leukemia
- measurement.description: NCI tumour cell line growth inhibition, 48 h
property.name: TGI

Here's what some known entries look like.
{"columns": ["molecule", "TGI"],
 "data": [
  ["C=CCN1CN(C2CCCCC2)CSC1=S", "0.655 µM"],
  ["CC(C)NC(=O)OCc1c(COC(=O)NC(C)C)c(-c2ccc[n+](COC(=O)C(C)C)c2)n2c1CCC2", "> 59.4 µM"],
  ["NC1CCCCC1N.O=C([O-])c1cc(S(=O)(=O)Nc2cc(S(=O)(=O)[O-])cc3cc(S(=O)(=O)[O-])cc(O)c23)ccc1[O-].[Pt+4]", "> 100 µM"],
  ["N#Cc1c(N2CCCC2)ncn(-c2ccccc2)c1=S", "> 100 µM"],
  ["Cn1ccnc1Sc1ccc(/C=N\\NC(=O)c2cccc(F)c2)cc1[N+](=O)[O-]", "> 100 µM"],
  ["O=C1Nc2ccccc2C12CCCC2", "> 100 µM"],
  ["Cc1cc(C)c2c(c1)CC1(Cc3c(ccc(C)c3C)C1=O)C2=O (stereo not given)", "> 100 µM"],
  ["N#CSCc1nc2ccc(Cl)cc2c(-c2ccccc2)[n+]1[O-]", "42.9 µM"]
]}

Field TGI (system: HL-60(TB) leukemia) for entry C=CCCCCCCCC(O)C1C[C@H](O)C(CCCCC)O1 (stereo not given in full) = 37.4 µM

Field TGI (system: HL-60(TB) leukemia) for entry `C=C1c2nc3ccccc3n2C=C(c2ccc(OC)cc2)N1c1ccccc1` = 7.93 µM

Field TGI (system: HL-60(TB) leukemia) for entry `N[C@H]1C[C@@H]1c1ccc(-c2cccc(O)c2)cc1` = 44.9 µM

Field TGI (system: HL-60(TB) leukemia) for entry COc1ccc(C2C(C#N)=C(N)Oc3c2sc2c(F)cccc32)cc1 (stereo not given) = 6.5 µM

Field TGI (system: HL-60(TB) leukemia) for entry `CC(C)(C)C1=NC(=P(c2ccccc2)(c2ccccc2)c2ccccc2)C(=O)O1` = > 100 µM

Field TGI (system: HL-60(TB) leukemia) for entry `CN=c1ss/c(=N\C(=S)N(C)C)n1-c1ccccc1` = > 100 µM

Field TGI (system: HL-60(TB) leukemia) for entry `Cc1c2c(nn1-c1ccc(S/N=C3\SCC(=O)CN3Cc3ccccc3)cc1)-c1ccccc1CC2` = > 100 µM

* * *

Examples of compounds with documented TGI follow.
- Test system: MDA-MB-435
- measurement.description: NCI tumour cell line growth inhibition, 48 h
Write the number in µM without appending the unit.

Here's what some known entries look like.
{"columns": ["compound", "reported.measurement"],
 "data": [
  ["CCN(CC)CCOCCn1c2c(c3ccccc31)CCCC2", 32.7],
  ["CC(C)(C)OC(=O)N1CC(O)O[C@H](c2ccccc2)[C@@H]1c1ccccc1 (some centres not stated)", 32.2]
]}

Item: CC(C)/C=N\N1C(N)=C(C#N)C(C#N)(C#N)C1C(C)C (configuration not stated) | TGI: 58.6

Item: `Cc1ccc(S(=O)(=O)Nn2c(S)c(C#N)c(-c3ccc(N(C)C)cc3)c(C#N)c2=O)cc1` | TGI: 60

Item: `Brc1ccc(-c2[nH]c3ccccc3c2N=Nc2ccccc2)cc1` | TGI: 34.5

Item: `COc1cc2c(/C=C3\C(=O)N(C)c4ccc(O)cc43)c[nH]c2cc1C` | TGI: 1.5

Item: CC(=O)OC1CC(OC2C(O)CC(OC3C(O)CC(OC4CCC5(C)C(CCC6C5CCC5(C)C(C7=CC(=O)OC7)C(O)CC65O)C4)OC3C)OC2C)OC(C)C1OC1OC(CO)C(O)C(O)C1O (configuration not stated) | TGI: 2.08

Item: `CSc1nc(N)cc(Oc2ccc(-c3nc(Nc4cccc(C(F)(F)F)c4)n[nH]3)cc2)n1` | TGI: 0.744

Item: `Clc1ccc(CNc2ccc3nc(CCC4CCCCC4)[nH]c3c2)cc1` | TGI: 4.1

Item: `CC(=O)OCc1cnc2c3c(nc4ccccc4c13)C(=O)c1cccnc1-2` | TGI: 0.527

Item: `Oc1c(I)cc(I)cc1CNCCN(Cc1ccccn1)Cc1ccccn1` | TGI: 3.15

* * *

- Tested on: SF-268 CNS
- measurement.description: NCI tumour cell line growth inhibition, 48 h; in the data active = GI50 below about 0.43 µM; inactive = the rest
Answer with one of the outcomes 1 (yes) = active, 0 (no) = inactive

Sample answers from the record:
{"columns": ["compound", "target.under.test", "assigned.category"],
 "data": [
  ["C[C@H]1CCC/C=C/[C@@H]2C[C@H](O)C[C@H]2[C@H](O)[C@@H](S(=O)C[C@@H](N)C(=O)O)CC(=O)O1 (some centres undefined)", "SF-268 CNS", "1 (yes)"],
  ["O=c1oc2ccc(Br)cc2c(=O)n1-c1ccc(Br)cc1F", "SF-268 CNS", "0 (no)"],
  ["O=C(/C=C/c1cccs1)c1ccc(Cl)cc1Cl", "SF-268 CNS", "0 (no)"],
  ["COc1cc2c(/C=C3\\C(=O)N(C)c4ccc(O)cc43)c[nH]c2cc1C", "SF-268 CNS", "0 (no)"],
  ["O=C1Nc2ccccc2/C1=C\\c1c[nH]c2ccc(Br)cc12", "SF-268 CNS", "0 (no)"],
  ["COc1ccc(C2C(C#N)=C(N)Oc3c2sc2c(F)cccc32)cc1 (centres undefined)", "SF-268 CNS", "0 (no)"],
  ["CCCCCCCCCC(CCCC(O)CC(=O)O)OC1OC(COC2OC(C)C(O)C(O)C2O)C(O)C(O)C1OC1OC(CO)C(O)C(O)C1OC1OC(C)C(OC(=O)CC(C)C)C(O)C1O (centres undefined)", "SF-268 CNS", "0 (no)"],
  ["C=CCNCCN1C(=O)c2ccc3c4c(ccc(c24)C1=O)C(=O)N(CCNCC=C)C3=O", "SF-268 CNS", "0 (no)"]
]}

Exercise: Hi team, can someone confirm the assay call for `COc1cccc(/C(COc2ccc3c(c2)oc(=O)c2ccccc23)=N\O)c1` ?
Solution: 0 (no)

Exercise: Hi team, can someone confirm the assay call for COc1cc(C2CC(c3cccc(Nc4ccnc5cc(Cl)ccc45)c3)=NN2C=O)cc(OC)c1OC (centres undefined) ?
Solution: 0 (no)

Exercise: Hi team, can someone confirm the assay call for `CSc1nc(N)cc(Oc2ccc(-c3nc(Nc4cccc(C(F)(F)F)c4)n[nH]3)cc2)n1` ?
Solution: 0 (no)

* * *

- Test system: KM12 colon
- measurement.description: NCI tumour cell line growth inhibition, 48 h
property.name: log10(TGI) (log10 of the value in µM)
Plainly stated, the numbers are log10 of TGI given in µM.

Here's what some known entries look like.
{"columns": ["compound", "log10(TGI)"],
 "data": [
  ["N=C1N(/N=C/c2ccccn2)C(=Nc2ccccc2)C(=S)N1c1ccccc1", 1.24],
  ["Clc1ccc2c(NCCNC3CCCCC3)ccnc2c1", 1.49],
  ["O=C(/C=C/c1cccs1)c1ccc(Cl)cc1Cl", 1.60],
  ["C=CCNCCN1C(=O)c2ccc3c4c(ccc(c24)C1=O)C(=O)N(CCNCC=C)C3=O", 0.26],
  ["CC(=O)OCc1cnc2c3c(nc4ccccc4c13)C(=O)c1cccnc1-2", -0.30],
  ["C=CCCCCCCCC(O)C1C[C@H](O)C(CCCCC)O1 (stereo partly specified)", 1.62],
  ["CCOC(=O)c1c(SC(=O)C(C)(C)Oc2ccc(Cl)cc2)n(-c2ccccc2)c(=S)n(-c2ccccc2)c1=O", 1.70],
  ["CCN1C(C)(C)CC(Oc2ccc(C(=O)Nc3ccc(NC(=O)Nc4cc(C(C)(C)C)on4)cc3)nc2)CC1(C)C", 0.97]
]}

Item: C[C@H]1CCC/C=C/[C@@H]2C[C@H](O)C[C@H]2[C@H](O)[C@@H](S(=O)C[C@@H](N)C(=O)O)CC(=O)O1 (stereo partly specified) | log10(TGI): -1.22

Item: `COc1cccc(/C(COc2ccc3c(c2)oc(=O)c2ccccc23)=N\O)c1` | log10(TGI): 1.59

Item: `O=C(O)COc1ccc(C(=O)/C(SS/C(C(=O)c2ccc(OCC(=O)O)c(Cl)c2Cl)=C2\C=C(c3ccc(F)cc3)SS2)=C2/C=C(c3ccc(F)cc3)SS2)c(Cl)c1Cl` | log10(TGI): 1.51

Item: `COc1ccc(NC(=O)Nc2ccccc2CNc2nc(Nc3ccc(OCCN4CCCC4)cc3)ncc2Cl)cc1` | log10(TGI): 0.25

Item: `O=C(OCc1nc2nc(Cl)nc(N3CCOCC3)c2[nH]1)n1ccnc1` | log10(TGI): 0.67

* * *

Examples of compounds with documented TGI follow.
- Test system: SK-MEL-2 melanoma
- measurement.description: NCI tumour cell line growth inhibition, 48 h

Here's what some known entries look like.
{"columns": ["compound", "reported.measurement"],
 "data": [
  ["CC(C)c1cc2c(c(O)c1O)[C@@]1(C)CCCC(C)(C)C1=C(O)C2", "2.65 µM"],
  ["COc1ccc(C2SCc3nc4ccccc4n32)cc1 (stereo unspecified)", "> 100 µM"],
  ["CC(=O)OCc1cnc2c3c(nc4ccccc4c13)C(=O)c1cccnc1-2", "1.96 µM"],
  ["Clc1ccc(Nc2nnc(CNc3ccccc3)c3ccccc23)cc1", "5.83 µM"],
  ["Brc1ccc(-c2[nH]c3ccccc3c2N=Nc2ccccc2)cc1", "36.7 µM"]
]}

Item: O=C1C(Br)=CC2C1C1C3CCC3C2(Br)C12OCCO2 (stereo unspecified) | TGI: 9.09 µM

Item: `CN1CCN(CC(=O)N2CCCn3c2nc2ccccc2c3=O)CC1` | TGI: > 100 µM

Item: `Cn1ccnc1Sc1ccc(/C=N\NC(=O)c2cccc(F)c2)cc1[N+](=O)[O-]` | TGI: > 100 µM

Item: `CC(=O)CC(=O)Nc1ccccc1[N+](=O)[O-]` | TGI: > 100 µM

Item: `O=C(NC/C(Cl)=C/Cl)Nc1c2ccccc2nc2ccccc12` | TGI: > 100 µM

Item: `COc1ccn(CC(=O)c2cc3ccccc3[nH]2)c(=O)n1` | TGI: > 100 µM
